System: Escherichia coli TOP10;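 also: peptides expressed intracellularly from a pBAD plasmid library in pooled LB shake-flask culture, induced with 0.3% L-arabinose, DNA abundance read by NGS, three biological replicates, DESeq2 with apeglm shrinkage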
Experiment: shrunken log2 fold change of peptide-encoding DNA abundance (4.5 h post-induction vs induction); higher = less antimicrobial activity (less host growth inhibition)
Conditions: time post-induction: 4.5 h; library: site-saturation at positions 5, 18, 19, 20
Assay metric: shrunken log2 fold change
Reply with the value as a number alone.

Below: 5 sequences and their reported shrunken log2 fold change.
RRIRWRPPRLPRPRPRPKYHPRP ... 0.185
RRIRKRPPRLPRPRPRPAMPPRP ... 0.788
RRIRGRPPRLPRPRPRPGTPPRP ... 0.919
RRIRTRPPRLPRPRPRPCKWPRP ... -0.000493
RRIRARPPRLPRPRPRPLVAPRP ... 0.58

**Q:** # shrunken log2 fold change lookup, item `RRIRARPPRLPRPRPRPHDPPRP`
**A:** 0.402

**Q:** # shrunken log2 fold change lookup, item `RRIRWRPPRLPRPRPRPIRQPRP`
**A:** -0.0309

**Q:** # shrunken log2 fold change lookup, item `RRIRARPPRLPRPRPRPWVKPRP`
**A:** 0.0825

**Q:** # shrunken log2 fold change lookup, item `RRIRQRPPRLPRPRPRPTKWPRP`
**A:** 0.25

**Q:** # shrunken log2 fold change lookup, item `RRIRDRPPRLPRPRPRPAGPPRP`
**A:** 0.271
